Entries annotated with measured Dmax
target: BRD9 (Homo sapiens, UniProt Q9H8M2); test: Degradation of BRD9 (IF), immunofluorescence in MV4-11 cells, 24 hours (Assay Protocol 2); format: cell-based; design: A suspension of MV4-11 cells (ATCC CRL-9591) was prepared; host or cells: MV4-11; conditions: MV4-11, Assay protocol 2; BRD9 degradation; read-out: Dmax
Sequence (Q9H8M2 whole entry): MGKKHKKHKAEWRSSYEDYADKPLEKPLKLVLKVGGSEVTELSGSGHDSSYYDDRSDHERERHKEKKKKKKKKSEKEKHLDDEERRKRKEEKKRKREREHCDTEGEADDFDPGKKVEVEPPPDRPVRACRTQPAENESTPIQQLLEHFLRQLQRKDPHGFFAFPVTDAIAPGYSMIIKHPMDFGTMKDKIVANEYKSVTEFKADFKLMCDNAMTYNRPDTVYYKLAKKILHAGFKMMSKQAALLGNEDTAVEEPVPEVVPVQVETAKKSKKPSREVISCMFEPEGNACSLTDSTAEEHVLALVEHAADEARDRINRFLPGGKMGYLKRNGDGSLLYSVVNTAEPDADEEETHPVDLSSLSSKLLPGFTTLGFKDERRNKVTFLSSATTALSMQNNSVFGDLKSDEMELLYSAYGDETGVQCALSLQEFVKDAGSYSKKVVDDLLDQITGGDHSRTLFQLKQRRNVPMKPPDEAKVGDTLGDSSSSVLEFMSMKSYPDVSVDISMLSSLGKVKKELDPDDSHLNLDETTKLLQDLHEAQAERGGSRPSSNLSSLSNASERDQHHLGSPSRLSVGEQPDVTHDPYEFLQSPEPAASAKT
experimentalReadout: Dmax

| compound | experimentalResult |
| --- | --- |
| COc1cc(-c2cn(C)c(=O)c(C)c2C)cc(OC)c1CN1CCN(Cc2cccc3c2CCN(C(=O)/C(C#N)=C/c2cc(C)ccn2)C3C)CC1 (mixture of isomers) [Compound B19] | 40 to 70% |
| COc1cc(-c2cn(C)c(=O)c(C)c2C)cc(OC)c1CN1CCN(Cc2cccc3c2CCN(C(=O)/C(C#N)=C/C(C)(C)C)C3C(F)F)C2(CC2)C1 (mixture of isomers) [Compound C13] | > 75% |
| COc1cc(-c2cn(C)c(=O)c(C)c2C)cc(OC)c1CN1CCN(Cc2cccc3c2CCN(C(=O)/C(C#N)=C/C(C)(C)CF)C3C(C)C)CC12CC2 (single isomer, unassigned) [Compound C102] | 40 to 70% |
| COc1cc(-c2cn(C)c(=O)c(C)c2C)cc(OC)c1CN1CCN(Cc2cccc3c2CCN(C(=O)/C(C#N)=C/C2(C)CCOCC2)[C@H]3C)C2(CC2)C1 (single isomer, unassigned) [Compound B194] | 40 to 70% |
| COc1cc(-c2cn(C)c(=O)c(C)c2C)ccc1OC1CCN(Cc2cccc3c2CCN(C(=O)/C(C#N)=C\C(C)(C)C)C3C)C(C)(C)C1 (stereo not shown) [Compound C58] | > 75% |
| COc1cc(-c2cn(C)c(=O)c(C)c2C)cc(OC)c1CN1CCN(c2cccc3c2CCN(C(=O)/C(C#N)=C/c2cccc(Br)n2)C3C)CC1 (single isomer, unassigned) [Compound C28] | 40 to 70% |
| COc1cc(-c2cn(C)c(=O)c(C)c2C)cc(OC)c1CN1CCN(Cc2cccc3c2CCN(C(=O)/C(C#N)=C/C2(C)CCOCC2)C3C(C)C)C2(CC2)C1 (mixture of isomers) [Compound C23] | > 75% |
| COc1cc(-c2cn(C)c(=O)c(C)c2C)cc(OC)c1CN(C)Cc1ccc2c(c1)[C@@H](C(C)C)N(C(=O)/C(C#N)=C/C(C)(C)C)CC2 (single isomer, unassigned) [Compound C89] | 40 to 70% |
| COc1cc(-c2cn(C)c(=O)c3[nH]ncc23)cc(OC)c1CN1CCN(Cc2cccc3c2CCN(C(=O)/C(C#N)=C/c2cccc(Br)n2)C3C)C2(CC2)C1 (mixture of isomers) [Compound B118] | 70 to 75% |
| COc1cnc(F)c(/C=C(\C#N)C(=O)N2CCc3c(CN4CCN(Cc5c(OC)cc(-c6cn(C)c(=O)c(C)c6C)cc5OC)CC4)cccc3C2C)c1 (mixture of isomers) [Compound B75] | 40 to 70% |
